Molecular target: histone deacetylase (HDAC), HeLa nuclear extracts
Assay: In vitro assay for inhibition of histone deacetylase
Assay type: biochemical
Design: key: pIC50 = negative log of IC50
Details: [3H]acetylated histone H4 peptide substrate
The reader will find reported Enzyme activity pIC50 values listed item by item below.
Hey, just send me the number, nothing else.

Examples with their reported Enzyme activity pIC50 follow.
>>> df
                                   compound  reported_measurement
0  O=C(NO)c1ccc(NC2CCCN(S(=O)(=O)c3ccc4c(c3)CCCC4)CC2)nc1 (stereo not shown)                 6.853
1  O=C(NO)c1cnc(NC2CCCN(S(=O)(=O)c3ccc4ccccc4c3)CC2)nc1 (stereo not shown)                 7.306
2  O=C(NO)c1cnc(NCC2CCCN(S(=O)(=O)c3ccc4ccccc4c3)C2)nc1 (stereo not shown)                  7.23
3  O=C(NO)c1cnc(NCC2CCN(S(=O)(=O)c3ccc4ccccc4c3)CC2)nc1                 7.408
4  O=C(NO)c1ccc(NC2CCN(S(=O)(=O)c3ccc4ccccc4c3)CC2)nc1                 7.676
5  O=C(NO)c1cnc(NC2CCCN(S(=O)(=O)c3ccc(-c4ccccc4)cc3)CC2)nc1 (stereo not shown)                 7.314
6  O=C(NO)c1cnc(NC2CCN(S(=O)(=O)c3ccc(-c4ccccc4)cc3)CC2)nc1                 7.077
7  O=C(NO)c1cnc(NC2CCN(S(=O)(=O)c3ccc4ccccc4c3)CC2)nc1                 7.525

Notebook entry, histone deacetylase (HDAC), HeLa nuclear extracts assay: Enzyme activity pIC50 of O=C(NO)c1ccc(NC2CCCN(S(=O)(=O)c3ccc(-c4ccccc4)cc3)CC2)nc1 (stereo not shown) = ? 6.871

Query the reported Enzyme activity pIC50 for histone deacetylase (HDAC), HeLa nuclear extracts; item: O=C(NO)c1cnc(NCC2CN(S(=O)(=O)c3ccc4ccccc4c3)CCO2)nc1 (stereo not shown) 7.161

The measurements presented in this section are drawn from patent US8916554B2.
